meta.source: the Immune Epitope Database (IEDB)

experimentalTarget: HLA-A*02:19
assayText: IEDB peptide-MHC binding, purified MHC/competitive/fluorescence; filed as Kd, often an IC50 or EC50 that approximates it; bounds were set here for any values at or beyond the usual limits of such assays
details: source organism: Mycobacterium tuberculosis variant bovis BCG str. Pasteur 1173P2
resultType: Kd

{"sequenceChain": "SLYEKSGSV", "resultType": "Kd", "measurement": "0.13 µM"}

====

experimentalTarget: HLA-A*69:01
assayText: IEDB peptide-MHC binding, purified MHC/direct/fluorescence; filed as Kd, often an IC50 or EC50 that approximates it; bounds were set here for any values at or beyond the usual limits of such assays
details: source organism: Yersinia enterocolitica

{"sequenceChain": "TLLCGAATA", "Kd": "394 nM"}
{"sequenceChain": "GYGRVNAGK", "Kd": "≥ 20000 nM"}
